Tested on: 115 human cancer cell lines
test.summary: Oncolines panel cell viability assay (ATPlite, 72 h)
Type: cell-based
applied.conditions: Homo sapiens, AU565, cell line AU-565, Breast adenocarcinoma, TP53 Mutant; read-out: IC50
readout.type: IC50
// return the numeric value with its unit appended

[Q] Param item = O=C1CCC(N2Cc3cc(Nc4noc5ccccc45)ccc3C2=O)C(=O)N1 (stereo not shown) ; retrieve measured IC50.
[A] 19.2 µM

---

Tested on: 115 human cancer cell lines
test.summary: Oncolines panel cell viability assay (ATPlite, 72 h)
Format: cell-based
applied.conditions: Homo sapiens, SW982, SW982, Biphasic synovial sarcoma, TP53 Wild-type; read-out: IC50
readout.type: IC50 (nM)
Could you give me the number in nM? Just the number is fine.

[Q] Param item = O=C1CCC(N2Cc3cc(Nc4noc5ccccc45)ccc3C2=O)C(=O)N1 (stereo not shown) ; retrieve measured IC50.
[A] 11

---

Test system: 102 cell lines
test.summary: Oncolines viability of 120 reference anti-cancer agents
Format: cell-based, human
applied.conditions: cell line A-549, Lung adenocarcinoma, TP53 Wild-type
readout.type: pIC50
In plain terms, pIC50 is the concentration in mol/L turned into minus its base-10 logarithm.

[Q] Param item = COc1ccc(C2=N[C@@H](c3ccc(Cl)cc3)[C@@H](c3ccc(Cl)cc3)N2C(=O)N2CCNC(=O)C2)c(OC(C)C)c1 ; retrieve measured pIC50.
[A] 5.18

---

test.summary: Pharmacokinetics in female CD1 mice
Type: in vivo, mouse
applied.conditions: female, CD1, plasma; IP 50 mg/kg, mouse
Method: Three mice were housed in each cage. […] Temperature and humidity were recorded by an auto-controlled data logger system. All the animals were provided a laboratory rodent diet (Altromin, Germany). Reverse osmosis water treated with ultraviolet light was provided ad libitum. […] Concentrations of SJ3149 in mouse plasma samples were determined by fit-for-purpose LC–MS/MS method. […] The area under the concentration–time curve (AUClast) was calculated by the linear trapezoidal rule. […]
readout.type: Tmax (min)
Could you give me the number in min? Just the number is fine.

[Q] Param item = O=C1CCC(N2Cc3cc(Nc4noc5ccccc45)ccc3C2=O)C(=O)N1 (stereo not shown) [SJ3149] ; retrieve measured Tmax.
[A] 15

---

Test system: 115 human cancer cell lines
test.summary: Oncolines panel cell viability assay (ATPlite, 72 h)
Assay type: cell-based
applied.conditions: Homo sapiens, B-cell, HT; Diffuse large B-cell lymphoma; read-out: IC50
readout.type: IC50

[Q] Form field - read-out: IC50; system: 115 human cancer cell lines; submitted item: O=C1CCC(N2Cc3cc(Nc4noc5ccccc45)ccc3C2=O)C(=O)N1 (stereo not shown)
[A] > 31.6 µM

---

Test system: 115 human cancer cell lines
test.summary: Oncolines panel cell viability assay (ATPlite, 72 h)
Format: cell-based
applied.conditions: Homo sapiens, T24, Bladder carcinoma, TP53 Mutant; read-out: IC50
readout.type: IC50

[Q] Form field - read-out: IC50; system: 115 human cancer cell lines; submitted item: O=C1CCC(N2Cc3cc(Nc4noc5ccccc45)ccc3C2=O)C(=O)N1 (stereo not shown)
[A] > 31.6 µM

---

Test system: LS411N
test.summary: cells
Parameters: Oncolines panel cell viability, ATPlite 1Step luminescence, duplicate 9-point dose response, IC50
applied.conditions: Homo sapiens, LS-411N; 72 h viability; read-out: SJ3149
readout.type: IC50

[Q] Param item = O=C1CCC(N2Cc3cc(Nc4noc5ccccc45)ccc3C2=O)C(=O)N1 (stereo not shown) [SJ3149] ; retrieve measured IC50.
[A] > 31.6 µM
